- Protocol notes: NOD1 signaling inhibitors, primary screen, cell-based, luminescence, uHTS (AID 1578);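 note: HEK-293T reporter cells stimulated with the NOD1 agonist gamma-tri-DAP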
- Recorded conditions: NOD1-driven NF-kB luciferase reporter cells, at 4 µM
About 3,000 (1%) of roughly 290,000 compounds were called active. Cut-off read from the data, not from the text of the source: active = inhibition mostly above about 36% (no sharp cut-off); inactive = mostly below about 34%. The entries come from a sample that favours actives as a whole.
Outcomes you can answer with include only these: True (active), False (inactive)

Answered cases to consult:
Cc1cc(C(=O)NC2CCCc3c2cnn3-c2cccc(C)c2C)no1 (centres undefined): False
CC1CCCCC1NC(=S)Nc1ccc(Cl)cc1Cl (centres undefined): True

Which outcome was entered for the compound CCOC(=O)C1CCCN(C(=O)CCNS(=O)(=O)c2cc(Br)cnc2N)C1 (centres undefined) in this test?
False

Try the compound CCOC(=O)c1ccc(N2C(=O)c3n[nH]c(C)c3C2c2cccnc2)cc1 (centres undefined)
False

Try the compound `CCN(CC)c1ccc(/C=N/NC(=O)Nc2ccccc2)cc1`
False

Try the compound `COc1ccc(-c2c(C#N)c(N)nc(Sc3ccc(Cl)cc3)c2C#N)cc1`
False

Try the compound `O=C(CN1CCc2ccccc2C1)NCC(=O)Nc1ccc(F)cc1`
False

Try the compound `CNC(=O)NC(=O)Cn1cnc2sc(-c3ccccc3)cc2c1=O`
False

Try the compound OC1CCCN(CC(O)c2ccccc2)C1 (centres undefined)
False

Try the compound `CCOC(=O)c1[nH]c(C)c(CN(CCc2ccc(OC)c(OC)c2)C(=O)CCCC(=O)O)c1C`
False

Try the compound `Cc1nc(SCn2nnc3ccccc3c2=O)nc(C)c1C`
False

Try the compound Cc1ccc(NC(=O)C2CCC(CNC(=O)[C@@H]3Cc4ccccc4CN3)CC2)cc1 (some centres undefined)
False

Try the compound `CCn1c(SCC(=O)Nc2nc(-c3ccc(C)cc3)cs2)nnc1-c1ccccc1`
False

Data origin, for the record: PubChem BioAssay AID1578
